molecular target: human RORγt ligand binding domain (RORγt LBD) (Homo sapiens (Human)); experiment: RORγt ThermoFluor® assay (thermal shift binding); details: read-out: ThermoFluor® Assay, Kd
Sequence (P51449 other isoform, or with tags, fused parts or gaps): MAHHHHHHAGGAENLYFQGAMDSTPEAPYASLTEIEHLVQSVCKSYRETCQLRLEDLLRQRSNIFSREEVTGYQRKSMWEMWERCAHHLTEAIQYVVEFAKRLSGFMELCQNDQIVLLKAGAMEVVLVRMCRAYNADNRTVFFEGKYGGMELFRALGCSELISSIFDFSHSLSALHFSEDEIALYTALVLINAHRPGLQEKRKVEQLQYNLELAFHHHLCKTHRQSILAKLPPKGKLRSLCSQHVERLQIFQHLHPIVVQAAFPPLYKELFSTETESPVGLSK
Returns: string. Value is yes if measured Kd is below 9 nM, and no if it is greater than or equal to it.

molecule="C[C@H](Nc1cc(C(F)F)c(-c2sc(C(=O)N[C@H](C)C(C)(C)O)nc2C(=O)N2CCC[C@@H]2C)cn1)C(F)(F)F [Example 200]" group_label=no
molecule="CC[C@H](Nc1cc(C(F)F)c(-c2sc(C(=O)NCC(C)(C)O)nc2C(=O)N2CCC[C@@H]2C)cn1)C1CC1 (relative stereo) [Example 166]" group_label=yes
molecule="C[C@H]1CCCN1C(=O)c1nc(C(=O)NCC(C)(C)O)sc1-c1cnc(NC2(C(F)(F)F)CC2)cc1C(F)(F)F [Example 147]" group_label=no
molecule="C[C@@H](Nc1cc(C(F)(F)F)c(-c2sc(C(=O)NCC(C)(C)O)nc2C(=O)N2CCC[C@@H]2C)cn1)C1CC1 [Example 48]" group_label=no
molecule="CC[C@H](Nc1cc(C(F)F)c(-c2sc(C(=O)N[C@H]3C[C@H](O)C3)nc2C(=O)N2CCC[C@@H]2C)cn1)C(F)(F)F [Example 233]" group_label=no
molecule="C[C@H]1CCCN1C(=O)c1nc(C(=O)NC[C@@H](O)C(C)(C)O)sc1-c1cnc(NC(C)(C)C)cc1C(F)(F)F (single isomer, unassigned) [Example 243]" group_label=yes

----------
This listing pairs molecules with measured inhibition at 3 µM.
molecular target: full-length human RORγt (Homo sapiens (Human)); assay: RORγt (full-length human) reporter assay, Conditions B or C; format: cell-based; settings: at 3 μM compound concentration; read-out: RORγt (FL) Reporter Assay B or C, % inhibition
Sequence (P51449 other isoform, or with tags, fused parts or gaps): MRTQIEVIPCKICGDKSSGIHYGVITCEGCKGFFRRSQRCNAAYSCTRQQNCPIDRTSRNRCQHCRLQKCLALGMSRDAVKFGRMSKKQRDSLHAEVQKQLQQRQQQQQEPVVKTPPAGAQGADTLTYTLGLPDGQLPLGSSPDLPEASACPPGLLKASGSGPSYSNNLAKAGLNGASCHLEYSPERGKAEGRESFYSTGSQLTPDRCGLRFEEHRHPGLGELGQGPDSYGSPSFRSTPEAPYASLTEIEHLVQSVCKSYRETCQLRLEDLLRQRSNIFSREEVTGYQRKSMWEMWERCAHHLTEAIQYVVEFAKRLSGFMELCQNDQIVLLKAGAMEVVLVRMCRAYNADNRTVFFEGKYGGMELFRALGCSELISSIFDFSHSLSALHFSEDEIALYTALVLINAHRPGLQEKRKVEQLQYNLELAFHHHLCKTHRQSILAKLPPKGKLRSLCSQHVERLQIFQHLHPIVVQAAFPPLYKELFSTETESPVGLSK
observable: inhibition at 3 µM (%)

molecule=C[C@H]1CCCN1C(=O)c1nc(C(=O)N[C@H](C)C(C)(C)O)sc1-c1cnc(N[C@H](C2CC2)C(F)(F)F)cc1C(F)F observable="inhibition at 3 µM" quantity_unit=% value_observed=107
molecule=C[C@H]1CCCN1C(=O)c1nc(C(=O)N[C@H](C)C(C)(C)O)sc1-c1cnc(NC2(C)CCC2)cc1C(F)F observable="inhibition at 3 µM" quantity_unit=% value_observed=87
molecule=C[C@H]1CCCN1C(=O)c1nc(C(=O)N[C@H](C)C(C)(C)O)sc1-c1cnc(NCC(C)(C)C)cc1C(F)(F)F observable="inhibition at 3 µM" quantity_unit=% value_observed=106
molecule=CC[C@H](Nc1cc(C(F)F)c(-c2sc(C(=O)N[C@@H]3CCC[C@H]3O)nc2C(=O)N2CC(F)(F)C[C@@H]2C)cn1)C(F)(F)F observable="inhibition at 3 µM" quantity_unit=% value_observed=103
molecule=C[C@H]1CCCN1C(=O)c1nc(C(=O)N[C@H]2C[C@H](O)C2)sc1-c1cnc(NC(C)(C)C)cc1C(F)(F)F observable="inhibition at 3 µM" quantity_unit=% value_observed=110
molecule=C[C@H]1CCCN1C(=O)c1nc(C(=O)NC2(CO)COC2)sc1-c1cnc(NC(C)(C)C)cc1C(F)(F)F observable="inhibition at 3 µM" quantity_unit=% value_observed=104
molecule="C[C@H](Nc1cc(C(F)F)c(-c2sc(C(=O)N[C@@H]3CC[C@H]3O)nc2C(=O)N2CCC[C@@H]2C)cn1)C(F)(F)F (relative stereo)" observable="inhibition at 3 µM" quantity_unit=% value_observed=102
molecule=C[C@H]1CCCN1C(=O)c1nc(C(=O)NC2CS(=O)(=O)C2)sc1-c1cnc(NC(C)(C)C)cc1C(F)(F)F observable="inhibition at 3 µM" quantity_unit=% value_observed=112
molecule=C[C@H](Nc1cc(C(F)F)c(-c2sc(C(=O)NC3CCOCC3)nc2C(=O)N2CCC[C@@H]2C)cn1)C(F)(F)F observable="inhibition at 3 µM" quantity_unit=% value_observed=109
molecule=C[C@H]1CCCN1C(=O)c1nc(C(N)=O)sc1-c1cnc(NC(C)(C)C)cc1C(F)(F)F observable="inhibition at 3 µM" quantity_unit=% value_observed=107
molecule=C[C@H](Nc1cc(C(F)F)c(-c2sc(C(=O)NC3CN(S(C)(=O)=O)C3)nc2C(=O)N2CCC[C@@H]2C)cn1)C(F)(F)F observable="inhibition at 3 µM" quantity_unit=% value_observed=103
molecule=C[C@H]1CCCN1C(=O)c1nc(C(=O)N2CC3(COC3)C2)sc1-c1cnc(NC(C)(C)C)cc1C(F)(F)F observable="inhibition at 3 µM" quantity_unit=% value_observed=110
molecule=CC[C@H](Nc1cc(C(F)F)c(-c2sc(C(=O)N3CCOCC3)nc2C(=O)N2CCC[C@@H]2C)cn1)C(F)(F)F observable="inhibition at 3 µM" quantity_unit=% value_observed=103
